# TEST PROTOCOL: High-throughput drug toxicity screening in the BPDCN cell line Gen2.2 (AID 1224824);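 also: cells exposed to compounds for 48 h before reading; 100% = DMSO and 0% = bortezomib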
# EXPERIMENTAL SETUP: Gen2.2 BPDCN cells; at 45.8 µM (top of the series)
cell viability, % of control (lower = more cytotoxic) values by entry
RECORDED METRIC: cell viability, % of control (lower = more cytotoxic) (%)

MOLECULE	UNITS SYMBOL	REPORTED MEASUREMENT
CC(N[C@H]1C[C@H]1c1ccccc1)c1ccc2c(c1)OCCO2 (some centres not stated)	%	154
C[C@@H]1O[C@@H](O[C@@H]2C=C3CC[C@@H]4[C@@H](CC[C@]5(C)[C@H](c6ccc(=O)oc6)CC[C@@]45O)[C@@]3(C)CC2)[C@H](O)[C@H](O)[C@H]1O	%	16.6
CCN1C[C@]2(OC(=O)c3ccccc3NC(C)=O)CC[C@H](OC)[C@@]34[C@H]5CC6[C@@H](OC)C[C@](O)(C(C[C@@H]23)[C@@H]14)[C@@]5(O)[C@@H]6OC	%	137
C[C@]12Cc3cn[nH]c3C[C@@H]1CC[C@@H]1[C@H]2CC[C@@]2(C)[C@H]1CC[C@]2(C)O	%	133
O=C(NCC1CCOCC1)c1cnc(Nc2ccc(Cl)cc2Cl)nc1C(F)(F)F	%	7.01
Clc1ccccc1C(c1ccccc1)(c1ccccc1)n1cccn1	%	108
C=CCON=C(C[C@H]1O[C@@H]2O[C@]3(C)CC[C@@H]4[C@H](C)CC[C@@H]([C@H]1C)[C@@]24OO3)[C@H]1O[C@@H]2O[C@]3(C)CC[C@H]4[C@H](C)CC[C@@H]([C@@H]1C)[C@@]24OO3	%	19.7

---

# TARGET SYSTEM: Atrial natriuretic peptide receptor 2 (Homo sapiens) (UniProt P20594)
# Sequence (P20594 whole entry, looked up): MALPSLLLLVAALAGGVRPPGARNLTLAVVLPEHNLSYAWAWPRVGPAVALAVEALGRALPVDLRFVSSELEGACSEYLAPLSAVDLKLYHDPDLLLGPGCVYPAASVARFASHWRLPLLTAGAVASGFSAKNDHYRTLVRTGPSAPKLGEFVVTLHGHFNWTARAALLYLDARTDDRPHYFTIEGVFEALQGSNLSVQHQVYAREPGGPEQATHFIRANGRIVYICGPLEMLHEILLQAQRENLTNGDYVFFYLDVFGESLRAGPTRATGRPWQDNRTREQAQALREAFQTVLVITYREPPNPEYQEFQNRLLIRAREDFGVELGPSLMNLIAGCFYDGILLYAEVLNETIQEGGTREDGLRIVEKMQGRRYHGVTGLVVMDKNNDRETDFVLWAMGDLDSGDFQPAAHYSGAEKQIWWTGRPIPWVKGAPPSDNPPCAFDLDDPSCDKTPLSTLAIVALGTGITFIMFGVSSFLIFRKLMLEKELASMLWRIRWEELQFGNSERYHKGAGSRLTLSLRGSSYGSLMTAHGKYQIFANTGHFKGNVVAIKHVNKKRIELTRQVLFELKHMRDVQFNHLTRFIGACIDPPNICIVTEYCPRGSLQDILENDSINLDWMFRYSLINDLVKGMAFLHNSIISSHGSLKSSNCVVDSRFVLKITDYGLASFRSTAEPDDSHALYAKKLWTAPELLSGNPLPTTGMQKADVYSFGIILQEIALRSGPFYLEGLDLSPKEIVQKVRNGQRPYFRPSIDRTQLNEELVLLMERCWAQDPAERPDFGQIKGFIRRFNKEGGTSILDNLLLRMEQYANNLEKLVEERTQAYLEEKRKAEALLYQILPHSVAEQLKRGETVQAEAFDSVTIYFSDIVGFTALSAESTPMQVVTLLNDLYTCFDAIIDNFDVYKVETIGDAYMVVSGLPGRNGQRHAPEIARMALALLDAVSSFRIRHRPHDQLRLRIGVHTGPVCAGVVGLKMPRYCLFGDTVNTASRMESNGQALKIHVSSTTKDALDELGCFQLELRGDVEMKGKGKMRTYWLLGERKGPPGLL
# TEST PROTOCOL: Natriuretic polypeptide receptor (hNpr2) antagonism - Pilot subtype selectivity assay (AID 1347050)
# EXPERIMENTAL SETUP: NPR2-expressing cells, cGMP antagonist-mode read-out; series mostly up to 38.3 µM
Results filed as inconclusive are left out. The source made the active and inactive calls. Calls come from the whole dose curve.
Labels: Y for active, N for inactive

COMPOUND	LABEL VALUE
CC(C)NC(C)Cc1ccc(I)cc1 (centres undefined)	N
Clc1cnc(Oc2ccc(Oc3ncc(Cl)cc3Cl)cc2)c(Cl)c1	N
NC(N)=NOCCC(N)C(=O)O (centres undefined)	N
C[N+]1(C)C2CCC1CC(OC(=O)C(CO)c1ccccc1)C2 (centres undefined)	N
C[C@@H]1O[C@H](C[N+](C)(C)C)C[C@H]1O	N
O=C(N[C@H]1CN2CCC1CC2)c1ccc(Cl)cc1	N
CNCCc1ccc(O)c(O)c1	N
O=C(O)[C@@H]1CCN1	N
CN[C@@H]1C[C@@H](c2ccc(Cl)c(Cl)c2)c2ccccc21	Y
CCCCc1ccc(C(=O)O)nc1	N
C[C@@H](N)Cc1cnc[nH]1	N
NC1CC1c1ccccc1 (centres undefined)	N
COC(=O)[C@@H](N)CCCN=C(N)N[N+](=O)[O-]	N
O=C(O)Cc1cnc[nH]1	N

---

# TEST PROTOCOL: P-glycoprotein substrates identified in KB-8-5-11 adenocarcinoma cell line, qHTS therapeutic library screen (AID 1346987); also: nearly all actives have a fitted effect of over 65% in size
# EXPERIMENTAL SETUP: KB-8-5-11 (P-gp overexpressing) viability, CellTiter-Glo, 72 h; series mostly up to 44.5 µM
Results filed as inconclusive are left out. Activity calls are given as the source filed them. Calls follow the shape of the dose curve; as a rule, active = well fitted inhibition curve with a large enough effect; inconclusive = small, poorly fitted or top-dose-only effect; inactive = flat fitted curve, though single readings scatter.
Labels: 1.0 for active, 0.0 for inactive

COMPOUND	LABEL VALUE
Oc1ccc2c3c1O[C@H]1[C@@H](O)C=C[C@H]4[C@@H](C2)NCC[C@@]341	0.0
Nc1c(Cl)c(Cl)c(Cl)c(Cl)c1Cl	0.0
CCNC(=O)CC1N=C(c2ccc(Cl)cc2)c2cc(OC)ccc2-n2c(C)nnc21 (stereo not drawn)	0.0
O=C(N[C@@H](COc1ccc2[nH]c(=O)[nH]c2c1)c1ccccc1)c1cccn(Cc2ccc(F)c(F)c2)c1=O	0.0
O=C(Nc1ccncc1)C(=O)c1cn(Cc2ccc(Cl)cc2)c2ccccc12	1.0
C[C@]12CC[C@H](O)CC1=CC[C@H]1[C@H]3CCC(=O)[C@@]3(C)CC[C@@H]12	0.0
C[C@]12CC[C@H]3[C@@H](CCC4=CC(=O)CC[C@@]43C)[C@H]1CC[C@H]2O	1.0
C[C@@H]1CC[C@@]2(OC1)O[C@H]1C[C@H]3[C@@H]4CC=C5C[C@@H](O[C@@H]6O[C@H](CO)[C@@H](O[C@@H]7O[C@@H](C)[C@H](O)[C@@H](O)[C@@H]7O)[C@H](O)[C@@H]6O[C@@H]6O[C@@H](C)[C@H](O)[C@@H](O)[C@@H]6O)CC[C@]5(C)[C@@H]4CC[C@]3(C)[C@@H]1[C@H]2C	1.0
